Data origin, for the record: paper PMC11862611

target: L. majIPCS (Leishmania major); construct: made in house; assay: inhibition of microsomal enzyme preparation of L. majIPCS; assay type: biochemical; conditions: 20 µM; microsomal preparation; read-out: LmjIPCS inhibition % at 20 µM ± SD
Sequence (E9AFX2 whole entry): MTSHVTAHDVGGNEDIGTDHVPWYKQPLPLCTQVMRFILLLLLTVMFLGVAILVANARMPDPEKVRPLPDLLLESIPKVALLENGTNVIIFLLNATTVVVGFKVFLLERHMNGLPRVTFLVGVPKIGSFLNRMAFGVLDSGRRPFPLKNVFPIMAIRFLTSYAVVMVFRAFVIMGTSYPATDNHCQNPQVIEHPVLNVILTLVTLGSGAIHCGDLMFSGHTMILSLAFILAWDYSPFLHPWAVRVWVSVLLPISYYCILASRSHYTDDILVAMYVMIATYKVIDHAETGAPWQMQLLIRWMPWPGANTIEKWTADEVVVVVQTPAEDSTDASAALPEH
READOUT: inhibition at 20 µM (%)
Report the value in % with no unit label.

Reported inhibition at 20 µM ( CN1CCC[C@H]1c1cn(C(c2ccccc2)c2ccc(Cl)cc2)nn1 (stereo partly shown) [14a] ) = 60.6

Reported inhibition at 20 µM ( O=C(CC1CCCC1)NC(c1ccccc1)c1ccc(Cl)cc1 (stereo not shown) ) = -5.4

Reported inhibition at 20 µM ( O=C(NCC1CCCN1)C(c1ccccc1)c1ccc(Cl)cc1 (stereo not shown) ) = 81.2

Reported inhibition at 20 µM ( CN(C)CCn1ncc2ccc(NC(=O)C(c3ccccc3)c3ccc(Cl)cc3)cc21 (stereo not shown) ) = 90.2

Reported inhibition at 20 µM ( CN1CCCC1c1cn(C(c2ccccc2)c2ccc(Cl)cc2)nn1 (stereo not shown) [14b] ) = 71

Reported inhibition at 20 µM ( O=C(NCC1CCCO1)C(c1ccccc1)c1ccc(Cl)cc1 (stereo not shown) ) = 2.9

Reported inhibition at 20 µM ( O=C(CC1CCCN1)NC(c1ccccc1)c1ccc(Cl)cc1 (stereo not shown) ) = 82.7
